Source of measurements: paper PMC10033419

system: DENV-2/16681/eGFP; test: microbe, parasite or virus in culture; assay type: cell-based; conditions: Dengue virus, DENV2, Vero, Vero with 50% HS; read-out: EC50, protein-binding-adjusted
measured_property: pEC50
In simple prose, pEC50 is minus the logarithm base ten of a concentration in moles per litre.

Can you share its pEC50? I mean this molecule: COc1cc(N[C@H](C(=O)c2c[nH]c3ccc(OC(F)(F)F)cc23)c2ccc(Cl)cc2OC)cc(S(C)(=O)=O)c1
8.85

----------
tested on: DENV-2 RL; test: microbe, parasite or virus in culture; assay type: cell-based; conditions: Dengue virus, DENV2, Vero, read-out: EC50 values Ave, B sample, passage 14
measured_property: pEC50
In simple prose, pEC50 is minus the logarithm base ten of a concentration in moles per litre.

Which pEC50 is reported with DENV-2 RL for this entry: COc1cc(N[C@H](C(=O)c2c[nH]c3ccc(OC(F)(F)F)cc23)c2ccc(Cl)cc2OC)cc(S(C)(=O)=O)c1 ?
9.90
